Record form. Attribute: melting point. Fill in for each entry.

Example results:
compound | test value
CS(=O)(=O)Nc1ccc(CO)cc1Sc1ccc(F)cc1F | 78 to 79 °C
COc1ccc(C2CCC(OC(C)=O)CC2NC(=O)c2ccc(OCC3CC3)c(OCC3CC3)c2)cc1OC (stereo not given) | 90 to 95 °C
COc1ccc(CC(=O)Nc2cc(Cl)ccc2O)cc1OC1CCCC1 | 151 to 152 °C
CCOC(=O)C(Cc1ccc(OC)cc1SCc1ccc(OC)cc1)(CC(C)C)C(=O)OCC | 59 to 60.5 °C

Attention now turns to another entry.
stdin: Given CNC(=O)C(C)Oc1cc(Oc2nn(C)c(C(F)(F)F)c2Cl)ccc1[N+](=O)[O-] (stereo not given) , state its recorded melting point.
stdout: 140 to 142 °C

---

Record form. Attribute: melting point. Fill in for each entry.

compound | test value
CN(C)S(=O)(=O)c1cc(-c2csc(=Nc3ccccc3Cl)n2C)ccc1Cl | 152 to 154 °C
COc1cc2c(Nc3ccc(Sc4nccn4C)c(Cl)c3)c(C#N)cnc2cc1OCCCN1CCC(N2CCCC2)CC1 | 196 to 198 °C
CN(C)C=Nc1c(Cl)cc(N=Cc2ccccc2F)cc1Cl | 79 to 81 °C
CCc1nc(-c2ncn3c2CCCc2ccccc2-3)no1 | 151 °C
CCN1CNS(=O)(=O)c2cc(Oc3cccc(C(C)O)c3)ccc21 (stereo not given) | 60 °C

Below are 3 compounds. Give each one its melting point.
1. CN(C)N=Cc1cc(-n2c(=O)cc(C(F)(F)F)n(C)c2=O)ccc1Cl
2. COc1ccc2c(c1)C(=O)N(c1ccc3cnn(C)c3c1)C2
3. CC(C)Cn1c(CNC(=O)OC(C)(C)C)c(-c2ccc(F)cc2)c2cc(O)ccc2c1=O

stdout:
170 to 171 °C
175 to 177 °C
229 to 230 °C

---

measured quantity: melting point

compound | test value
OCc1ccc(-c2nn(Cc3ccccc3)c3ncccc23)o1 | 104 °C
COC(=O)c1nc2ccccc2c(N)c1C(=O)OC | 167 to 168 °C
CCOCC1OC(n2cnc3c(N)ncnc32)C(O)C1O (stereo unspecified) | 110 to 112 °C
CCCC(=O)Nc1n[nH]c2cc(-c3ccc(O)cc3)ccc12 | 235 °C
CC(=O)OI(OC(C)=O)c1ccc(-c2ccc(Cl)cc2)cc1 | 147 to 150 °C
CN(C)c1ccc(C(=O)Nc2ccc3ccc(Cl)nc3n2)cc1 | 248 °C
O=C1N(c2ccc(I)cc2)CCCC1(Cl)Cl | 153 to 155 °C
Cc1ccc2c(c1)C1=NN(C(=O)c3cccnc3)CC1CO2 (stereo unspecified) | 177 to 178 °C
CS(=O)(=S)OCc1ccc(C(=O)O)cc1 (stereo unspecified) | 188 °C
CCOC(=O)c1sc(C)c2nc(OCC)n(Cc3ccc(-c4ccccc4C#N)cc3)c12 | 153 to 155 °C

Attention now turns to another entry.
stdin: Given COc1ccc2oc(C)c(Cc3cccc(NS(=O)(=O)C(F)(F)F)c3)c(=O)c2c1 , state its recorded melting point.
stdout: 172 to 174 °C

---

Record form. Attribute: melting point. Fill in for each entry.

Example results:
compound | test value
CC(=O)Nc1ccc(/C(=C/N2CCOCC2)C(=S)N2CCOCC2)cc1 | 145 to 147 °C
CCc1cccc2c1C(=O)NS2(=O)=O | 183 to 185 °C
CC1(C)SC(=O)C2OC=C(Br)C=C21 (stereo unspecified) | 63 to 72 °C
CC(C(N)=O)C(=O)Nc1ccc(OCc2cccc(F)c2)cc1 (stereo unspecified) | 206 °C
COC(=O)c1cccc2c1CC(C)(C)CC2N(C)S(C)(=O)=O (stereo unspecified) | 98 to 99 °C

Below are 4 compounds. Give each one its melting point.
1. CC(CN1C(=O)c2ccccc2C1=O)c1c[nH]c2ccc(C#N)cc12 (stereo unspecified)
2. O=C(O)CNC(=O)NC(=O)C(CC1CCCC1)c1ccc(Cl)c(Cl)c1 (stereo unspecified)
3. CCOC(=O)c1cnc2c(SCc3ccccc3)cccn2c1=O
4. C[C@@H](Oc1cccc(F)c1N)[C@H](NC(=O)OC(C)(C)C)C(=O)O

stdout:
1. 218 to 220 °C
2. 204 to 207 °C
3. 165 to 167 °C
4. 158 to 160 °C

Below are 7 compounds. Give each one its melting point.
1. O=C(Nc1n[nH]c2nc(Oc3ccc(F)cc3F)ncc12)OCc1ccccc1
2. NC(=O)c1cnc2c(F)c(F)ccc2c1
3. Cc1ccc2[nH]c3c(c2c1)CCNC3(C(=O)OC(C)(C)C)C1(NC(=O)OCc2ccccc2)CCC1 (stereo unspecified)
4. NS(=O)(=O)c1cccc(-c2cccc(-c3nc(-c4ccc(Cl)cc4)cc(C(F)(F)F)n3)c2)c1
5. Cn1cc(C(=O)c2ccc(Cl)cc2)cc1C(=O)c1ccc(Cl)nc1
6. Nc1nc2ccc(NC(=O)[C@@H]3CCCN3C(=O)[C@@H](Cc3ccccc3)NS(=O)(=O)Cc3ccccc3)cc2s1
7. CC1(C)CC(=O)C(c2c[nH]c3ccccc23)C(=O)C1

stdout:
270 to 272 °C
250 °C
219 to 220 °C
165 °C
150 to 152 °C
130 to 133 °C
173 °C

Below are 5 compounds. Give each one its melting point.
1. O=C(Nc1cccc(S(=O)(=O)NCCO)c1)c1cnn2c(C(F)(F)F)cc(-c3ccc(C(F)(F)F)cc3)nc12
2. CCOC(=O)c1oc2ccc([N+](=O)[O-])cc2c1OC(C)C
3. O=[N+]([O-])c1ccc(O)c(CO)c1
4. Cn1ccnc1Sc1cc(Cl)ccc1N
5. CCCCOc1nc(N)c2nc(OC)n(CCCBr)c2n1

stdout:
227 °C
122 °C
112 to 114 °C
116 to 120 °C
200 to 201 °C

---

measured quantity: melting point

Example results:
smiles repr | test value
Clc1ccc(C(Cl)Cl)c(C(Cl)Cl)c1 | 63 to 64 °C
CC(C)(CO)Nc1nc(-c2ccc(Br)cc2)cs1 | 151 to 153 °C

Below are 3 compounds. Give each one its melting point.
1. CC(=O)CC(=O)Nc1ccc(SC(F)(F)F)cc1
2. COc1ccc(-n2cccc2-c2ccc(S(N)(=O)=O)cc2)cc1
3. CSc1cccc(Cc2sc(NC(C)=O)nc2C=O)c1

stdout:
["120 to 122 °C", "112 to 114 °C", "148 to 150 °C"]

Below are 6 compounds. Give each one its melting point.
1. CCOC(=O)CCCCCc1oc(=O)[nH]c1-c1ccc(Cl)cc1
2. O=C(O)c1ccc(NC(=O)c2ccc(F)cc2)cc1
3. CCCCCCCNC(=O)N(C)c1ncc(-c2ccc(C[C@H](OCC)C(=O)O)cc2)s1
4. COCCOC(=O)Nc1cc(N2CC=CCC2)nc2nc(=O)on12
5. Oc1ccc(-c2nc3ccccc3s2)cc1
6. CCOC(=O)Cc1cc(O)nc(N(CC)CC)n1

stdout:
1. 113 to 114 °C
2. > 300 °C
3. 97 °C
4. 195 to 196 °C
5. 108 to 109 °C
6. 98 to 100 °C

---

Record form. Attribute: melting point. Fill in for each entry.

compound | melting point
Cc1c(N)cccc1OC1CCN(C(=O)OC(C)(C)C)C1 (stereo unspecified) | 137 °C
Nc1nc2ccc(NC(=O)C(=O)N3CCC(Cc4ccccc4)CC3)cc2s1 | 203 °C
COc1c(O)cnc(C)c1C | 274 to 276 °C
CC(O)=C(C#N)C(=O)Nc1ccc(Cl)cc1Cl | 143 to 144 °C

Below are 2 compounds. Give each one its melting point.
1. Cc1cnn(CC(=O)O)c1OCCCc1cn(-c2ccc(C(F)(F)F)cn2)nc1C(C)C
2. CC1(C)OC(=O)Nc2ccc(-c3cc(Cl)cc(Cl)c3)cc21

stdout:
1: 123 to 124 °C; 2: 245 to 246 °C

---

Record form. Attribute: melting point. Fill in for each entry.

Example results:
compound | melting point
CC1(C)CC(=O)Nc2cc(N)ccc21 | 161 to 163 °C
COc1ccc(-c2cc(CO)c(=O)n(CC=Cc3ccc(Cl)cc3)n2)cc1F | 158 to 160 °C
O=C(O)c1c(-c2ccccc2)c2ccccc2n1Cc1ccc(OCc2ccccc2)cc1 | 193 to 194 °C
CC1(C2CCCC2)Cc2cc(OCCCCCCC(=O)O)c(Cl)c(Cl)c2C1=O (configuration not stated) | 107 to 110 °C
Cc1cc(SC#N)c(C)c(C)c1O | 100 °C
O=C1c2ccccc2C(=O)N1CCCSc1ncco1 | 101 °C
COc1cccc(Cc2n[nH]c3c2c(=O)n(-c2ccccc2)c2ncccc32)c1 | 234 to 236 °C
FC(F)c1cccc(C=C2c3ccccc3CCc3ccccc32)c1 | 92.5 °C

Below are 4 compounds. Give each one its melting point.
1. COc1ccccc1C1CC(=O)C(C(C)=O)C(=O)C1 (configuration not stated)
2. NC(=O)c1cc(-n2cccn2)ccc1N
3. COc1ccc(C(=O)Cc2c(Cl)cncc2Cl)c2c(CC(=O)Nc3cccnc3)coc12
4. COC(=O)COc1ccc(CC2SC(=O)N(C(c3ccccc3)(c3ccccc3)c3ccccc3)C2=O)cc1 (configuration not stated)

stdout:
1: 65 to 66 °C; 2: 147 to 149 °C; 3: 252 to 255 °C; 4: 158 to 162 °C
